Test system: NCI-H1975
Experimental protocol: relative viability (nuclei count vs DMSO), 5 days (fraction); higher = more cells survive
Recorded conditions: first compound 0.01581 µM
Quantity measured: relative viability
Respond numerically, and do not add a unit to the figure.

Observed relative viability, NCI-H1975, CC1(C)CCC(c2ccc(Cl)cc2)=C(CN2CCN(c3ccc(C(=O)NS(=O)(=O)c4ccc(N[C@H](CCN5CCOCC5)CSc5ccccc5)c(S(=O)(=O)C(F)(F)F)c4)cc3)CC2)C1 [Navitoclax] + CS(=O)(=O)CCNCc1ccc(-c2ccc3ncnc(Nc4ccc(OCc5cccc(F)c5)c(Cl)c4)c3c2)o1 [Lapatinib] (partner 2 µM) : 1.02

Entry CC1(C)CCC(c2ccc(Cl)cc2)=C(CN2CCN(c3ccc(C(=O)NS(=O)(=O)c4ccc(N[C@H](CCN5CCOCC5)CSc5ccccc5)c(S(=O)(=O)C(F)(F)F)c4)cc3)CC2)C1 [Navitoclax] + CCNC(=O)c1noc(-c2cc(C(C)C)c(O)cc2O)c1-c1ccc(CN2CCOCC2)cc1 [Luminespib] (partner 0.01 µM) , tested on NCI-H1975, has a reported relative viability of 0.309

Per the reported NCI-H1975 data, CC1(C)CCC(c2ccc(Cl)cc2)=C(CN2CCN(c3ccc(C(=O)NS(=O)(=O)c4ccc(N[C@H](CCN5CCOCC5)CSc5ccccc5)c(S(=O)(=O)C(F)(F)F)c4)cc3)CC2)C1 [Navitoclax] + N=C(N)NC(=N)NCCc1ccccc1 [Phenformin] (partner 250 µM) has relative viability of 0.428

# lookup: CC1(C)CCC(c2ccc(Cl)cc2)=C(CN2CCN(c3ccc(C(=O)NS(=O)(=O)c4ccc(N[C@H](CCN5CCOCC5)CSc5ccccc5)c(S(=O)(=O)C(F)(F)F)c4)cc3)CC2)C1 [Navitoclax] + Cc1nc(NC(=O)N2CCC[C@H]2C(N)=O)sc1-c1ccnc(C(C)(C)C(F)(F)F)c1 [Alpelisib] (partner 2 µM) on NCI-H1975, relative viability = 0.732

Sample CC1(C)CCC(c2ccc(Cl)cc2)=C(CN2CCN(c3ccc(C(=O)NS(=O)(=O)c4ccc(N[C@H](CCN5CCOCC5)CSc5ccccc5)c(S(=O)(=O)C(F)(F)F)c4)cc3)CC2)C1 [Navitoclax] + CS(=O)(=O)N1CCN(Cc2cc3nc(-c4cccc5[nH]ncc45)nc(N4CCOCC4)c3s2)CC1 [Pictilisib] (partner 1 µM) , system: NCI-H1975. Its relative viability is 0.32

Case CC1(C)CCC(c2ccc(Cl)cc2)=C(CN2CCN(c3ccc(C(=O)NS(=O)(=O)c4ccc(N[C@H](CCN5CCOCC5)CSc5ccccc5)c(S(=O)(=O)C(F)(F)F)c4)cc3)CC2)C1 [Navitoclax] + O=C(c1cc(Cc2n[nH]c(=O)c3ccccc23)ccc1F)N1CCN(C(=O)C2CC2)CC1 [Olaparib] (partner 8 µM) , NCI-H1975, relative viability recorded as 0.854
